target: DRB1*0701 (Homo sapiens, UniProt P01903+P01911, A100R/A102G/A103Q/D57E/D86V/E43K/F76Y/K127E/L162R/M171V/P40G/Q125H/Q99D/R33Q/R42Y/R54Q/S133A/S66F/T210M/V115G/Y107V/Y59L/Y89S); assay: biochemical; type: binding
Listed here are compounds together with their documented IC50.
measurement_name: IC50 (nM)

1. CC[C@H](C)[C@H](NC(=O)[C@H](CC(C)C)NC(=O)[C@H](C)NC(=O)[C@H](CO)NC(=O)[C@H](CCCNC(=N)N)NC(=O)[C@H](C)NC(=O)[C@H](CC(C)C)NC(=O)[C@H](Cc1ccccc1)NC(=O)[C@@H](NC(=O)[C@@H](N)CC(C)C)[C@@H](C)CC)C(=O)N[C@@H](CC(C)C)C(=O)N[C@@H](CCCNC(=N)N)C(=O)NCC(=O)N[C@@H](CO)C(=O)N[C@H](C(=O)O)C(C)C [Flu.NP.259] | 7
2. CC[C@H](C)[C@H](NC(=O)[C@H](CC(C)C)NC(=O)[C@H](Cc1ccccc1)NC(=O)CNC(=O)[C@H](CCCNC(=N)N)NC(=O)[C@H](CC(C)C)NC(=O)[C@@H](NC(=O)[C@H](C)NC(=O)[C@H](CO)NC(=O)[C@@H](N)CCC(=O)O)C(C)C)C(=O)N[C@@H](CC(C)C)C(=O)NCC(=O)N[C@@H](CCCCN)C(=O)N[C@@H](CCC(=O)O)C(=O)N[C@@H](CC(=O)O)C(=O)O [Flu.PB2.690] | 2470
3. CC[C@H](C)[C@H](NC(=O)CNC(=O)[C@@H]1CCCN1C(=O)[C@H](Cc1c[nH]cn1)NC(=O)[C@H](CO)NC(=O)[C@H](CCC(=O)O)NC(=O)[C@H](CCC(=O)O)NC(=O)[C@H](CC(C)C)NC(=O)[C@H](Cc1ccccc1)NC(=O)[C@H](C)NC(=O)[C@H](CCSC)NC(=O)[C@H](C)N)C(=O)N[C@@H](Cc1ccccc1)C(=O)N[C@@H](CCC(=O)O)C(=O)N[C@@H](CC(N)=O)C(=O)O [Flu.PB1.94] | 84

---

target: DRB1*0405 (Homo sapiens, UniProt P01903+P01911, A100R/A169T/D86S/F76Y/I96L/K127E/L162R/M171V/N62H/P40V/Q125Y/R42H/S133A/S149N/S66Y/V115G/V209L/W38E); assay: biochemical; format: binding; conditions: read-out: IC50 nM to purified HLA DRB1*0405
measurement_name: log10(IC50) (log10 of the value in nM)

1) CC[C@H](C)[C@H](NC(=O)[C@H](CCSC)NC(=O)[C@H](CS)NC(=O)[C@H](CC(=O)O)NC(=O)[C@H](CCC(=O)O)NC(=O)[C@H](CCC(N)=O)NC(=O)[C@H](CO)NC(=O)[C@H](Cc1ccccc1)NC(=O)[C@@H](NC(=O)[C@H](CCSC)NC(=O)[C@H](C)N)C(C)C)C(=O)N[C@@H](CCCCN)C(=O)N[C@@H](C)C(=O)N[C@H](C(=O)N[C@@H](CCCNC(=N)N)C(=O)O)C(C)C | 3.83
2) CC[C@H](C)[C@H](NC(=O)[C@H](CCSC)NC(=O)[C@H](CO)NC(=O)[C@@H](N)CCC(=O)O)C(=O)N[C@@H](CCC(=O)O)C(=O)N[C@@H](C)C(=O)N[C@@H](CCC(=O)O)C(=O)N[C@@H](CO)C(=O)N[C@@H](CO)C(=O)N[C@H](C(=O)N[C@@H](CCCCN)C(=O)N[C@@H](CCC(=O)O)C(=O)N[C@@H](CCCCN)C(=O)N[C@@H](CC(=O)O)C(=O)N[C@@H](CCSC)C(=O)O)C(C)C | 1.86
3) CC[C@H](C)[C@H](NC(=O)[C@H](CC(C)C)NC(=O)[C@H](Cc1ccccc1)NC(=O)CNC(=O)[C@H](CCCNC(=N)N)NC(=O)[C@H](CC(C)C)NC(=O)[C@@H](NC(=O)[C@H](C)NC(=O)[C@H](CO)NC(=O)[C@@H](N)CCC(=O)O)C(C)C)C(=O)N[C@@H](CC(C)C)C(=O)NCC(=O)N[C@@H](CCCCN)C(=O)N[C@@H](CCC(=O)O)C(=O)N[C@@H](CC(=O)O)C(=O)O | 3.85
4) CC[C@H](C)[C@H](NC(=O)[C@@H](N)Cc1ccc(O)cc1)C(=O)N[C@@H](CCC(N)=O)C(=O)N[C@@H](CCSC)C(=O)N[C@@H](CS)C(=O)N[C@H](C(=O)N[C@@H](CCC(=O)O)C(=O)N[C@@H](CC(C)C)C(=O)N[C@@H](CCCCN)C(=O)N[C@@H](CC(C)C)C(=O)N[C@@H](CO)C(=O)N[C@@H](CC(=O)O)C(=O)N[C@@H](Cc1ccc(O)cc1)C(=O)N[C@@H](CCC(=O)O)C(=O)NCC(=O)O)[C@@H](C)O | 3.43
5) CC[C@H](C)[C@H](NC(=O)CNC(=O)[C@@H](N)CCCNC(=N)N)C(=O)N[C@@H](CC(C)C)C(=O)N[C@@H](CCC(=O)O)C(=O)N[C@@H](CC(=O)O)C(=O)N[C@@H](CCC(=O)O)C(=O)N[C@@H](CCC(N)=O)C(=O)N[C@@H](CCSC)C(=O)N[C@@H](Cc1ccc(O)cc1)C(=O)N[C@@H](CCC(N)=O)C(=O)N[C@@H](CCCCN)C(=O)N[C@@H](CS)C(=O)N[C@@H](CS)C(=O)N[C@@H](CC(N)=O)C(=O)O | 3.52
6) CC[C@H](C)[C@H](NC(=O)[C@H](CCC(N)=O)NC(=O)[C@H](CC(C)C)NC(=O)[C@H](CCSC)NC(=O)[C@H](CC(C)C)NC(=O)[C@@H](N)CO)C(=O)NCC(=O)N[C@@H](CC(N)=O)C(=O)N[C@@H](CCSC)C(=O)N[C@H](C(=O)N[C@@H](CO)C(=O)N[C@H](C(=O)N[C@@H](Cc1c[nH]c2ccccc12)C(=O)N[C@H](C(=O)N[C@@H](CO)C(=O)N[C@@H](Cc1c[nH]cn1)C(=O)N[C@@H](CO)C(=O)O)C(C)C)[C@@H](C)CC)[C@@H](C)CC | 1.82
7) CSCC[C@H](NC(=O)[C@@H](NC(=O)[C@H](CCCNC(=N)N)NC(=O)[C@@H](N)CC(=O)O)C(C)C)C(=O)N[C@H](C(=O)N[C@@H](CO)C(=O)N1CCC[C@H]1C(=O)N[C@@H](CC(C)C)C(=O)N[C@@H](C)C(=O)N[C@H](C(=O)N[C@H](C(=O)N[C@@H](Cc1c[nH]c2ccccc12)C(=O)N[C@@H](Cc1c[nH]c2ccccc12)C(=O)N[C@@H](CC(N)=O)C(=O)N[C@@H](CCCNC(=N)N)C(=O)O)[C@@H](C)O)C(C)C)C(C)C | 4.20
8) CC[C@H](C)[C@H](NC(=O)[C@H](CCSC)NC(=O)[C@@H]1CCCN1C(=O)[C@H](CC(N)=O)NC(=O)[C@@H](N)Cc1ccccc1)C(=O)N[C@H](C(=O)N[C@@H](CCC(=O)O)C(=O)N[C@@H](CC(C)C)C(=O)N[C@@H](C)C(=O)N[C@@H](CCC(=O)O)C(=O)N[C@@H](CCCCN)C(=O)N[C@H](C(=O)N[C@@H](CCSC)C(=O)N[C@@H](CCCCN)C(=O)N[C@@H](CCC(=O)O)C(=O)O)[C@@H](C)O)C(C)C | 3.09
9) CC[C@H](C)[C@H](NC(=O)CNC(=O)[C@@H](NC(=O)[C@@H](NC(=O)[C@H](CO)NC(=O)[C@H](C)NC(=O)[C@H](C)NC(=O)[C@@H](NC(=O)[C@@H](NC(=O)[C@H](CC(C)C)NC(=O)[C@@H]1CCCN1C(=O)[C@@H](N)CC(=O)O)C(C)C)C(C)C)[C@@H](C)CC)[C@@H](C)CC)C(=O)N[C@@H](CC(C)C)C(=O)N[C@@H](Cc1c[nH]cn1)C(=O)N[C@@H](CC(C)C)C(=O)O | 2.80

---

target: DRB1*1302 (Homo sapiens, UniProt P01903+P01911, A100E/A169T/K41T/L162R/M171V/P40S/Q125H/Q178H/Q39Y/Q99D/R42S/S66N/T262R/V115G/W38E/Y61H); test: biochemical; assay type: binding; conditions: read-out: IC50 nM to purified HLA DRB1*1302
Sequence (P01903 26-254 limits assumed, other chains not shown): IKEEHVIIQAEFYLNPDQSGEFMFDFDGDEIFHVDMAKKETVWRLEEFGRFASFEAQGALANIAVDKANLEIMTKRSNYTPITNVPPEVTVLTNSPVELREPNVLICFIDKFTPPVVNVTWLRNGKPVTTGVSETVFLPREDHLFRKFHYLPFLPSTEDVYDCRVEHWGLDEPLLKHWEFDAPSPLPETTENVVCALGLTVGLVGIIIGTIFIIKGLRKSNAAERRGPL
Where no end group is shown, it is not given here.
Listed here are sequences together with their documented IC50.
measurement_name: IC50 (nM)

1) MVAYMLERELVRKTR [Flu.PB2.205] | 2080
2) ISGVKLESIGIYQILSI [Flu.HA.519] | 408
3) MEWLKTRPILSPLTK [Flu.M1.46] | 3870
4) PVHFRNQVKIRRRVD [Flu.PB2.135] | 359
5) TRPILSPLTKGILGF [Flu.M1.51] | 292
6) LILYDKEEIRRIWRQ [Flu.NP.111] | 3100

The origin of these recorded values is patent US9511134B2.
